Biological target: T1, Cynomolgus CD3 on Cyno CD3+ Jurkat cells (cynomolgus, UniProt Q95LI5 22-198)
T1 construct: whole, on cells; CD3 on cells; also called cCD3
T1 sequence (Q95LI5 22-198): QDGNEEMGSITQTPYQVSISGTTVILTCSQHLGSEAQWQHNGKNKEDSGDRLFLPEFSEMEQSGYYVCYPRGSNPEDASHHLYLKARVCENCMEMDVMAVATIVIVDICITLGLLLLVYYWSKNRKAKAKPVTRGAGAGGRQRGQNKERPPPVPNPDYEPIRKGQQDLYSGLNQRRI
Test: cell binding cCD3, fold over background
property: Cell Binding cCD3 (FOB)
Number in FOB, nothing else.

# get_value(readout='Cell Binding cCD3 (FOB)', item= ADI-46372 (antibody, V domains shown, also called Ab36) VH: QVQLVQSGAEVKKPGASVKVSCKASGFNIKDYYMHWVRQAPGQRLEWIGWIDLENANTVYDAKFQGRVTITRDTSAGTAHMELSSLRSEDTAVYYCARDAYGRYFYDVWGQGTPVTVSS VL: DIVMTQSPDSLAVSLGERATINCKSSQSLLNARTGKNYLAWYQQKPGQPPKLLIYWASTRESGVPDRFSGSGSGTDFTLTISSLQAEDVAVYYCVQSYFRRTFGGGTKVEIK )
80

Which measured Cell Binding cCD3 (FOB) value corresponds to ADI-45973 (antibody, V domains shown, also called Ab9) VH: QVQLVQSEAEVKKPGASVKVSCKASGFNIKDYYMHWVRQAPGQRLEWIGWIDLENANTVYDAKFQGRVTITRDTSASTAYMELSSLRSEDTAVYYCARDAYGRYFYDVWGQGTLVTVSS VL: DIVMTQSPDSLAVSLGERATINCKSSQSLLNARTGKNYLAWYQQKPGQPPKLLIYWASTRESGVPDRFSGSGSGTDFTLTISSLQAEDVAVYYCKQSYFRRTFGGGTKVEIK ?
91

I have this binder here, ADI-45985 (antibody, V domains shown, also called Ab22) VH: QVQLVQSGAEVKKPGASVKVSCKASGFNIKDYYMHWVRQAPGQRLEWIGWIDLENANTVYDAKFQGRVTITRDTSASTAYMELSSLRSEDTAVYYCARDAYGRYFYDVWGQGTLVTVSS VL: DIVMTQSPDSLAVSLGERATINCKTSQSLLNARTNKNYLAWYQQKPGQPPKLLIYWASTRESGVPDRFSGSGSGTDFTLTISSLQAEDVAVYYCVQSYFRRTFGGGTKVEIK , and I need its recorded Cell Binding cCD3 (FOB).
23
